Reference source: patent US20250276075A1

Biological target: T1, Axl (Homo sapiens, UniProt P30530)
T1 sequence (P30530 26-451 limits assumed): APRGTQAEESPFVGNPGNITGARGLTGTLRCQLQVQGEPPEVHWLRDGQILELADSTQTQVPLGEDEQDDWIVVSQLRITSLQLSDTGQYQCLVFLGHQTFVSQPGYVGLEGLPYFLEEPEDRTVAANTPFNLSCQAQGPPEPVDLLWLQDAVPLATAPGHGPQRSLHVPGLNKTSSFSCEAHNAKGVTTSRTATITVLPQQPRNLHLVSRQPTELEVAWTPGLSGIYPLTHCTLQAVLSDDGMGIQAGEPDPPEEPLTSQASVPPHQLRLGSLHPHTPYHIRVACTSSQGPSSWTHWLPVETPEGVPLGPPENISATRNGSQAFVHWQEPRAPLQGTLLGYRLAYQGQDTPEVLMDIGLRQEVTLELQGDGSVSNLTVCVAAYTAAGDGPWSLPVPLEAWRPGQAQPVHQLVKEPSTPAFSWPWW
Assay: Affinity ELISA of CPE mutant antibodies for binding to Axl at pH 6.0 over pH 7.4
Settings: light chain variable region mutants; 1:3 dilution
# key: entry, value: Affinity ELISA CPE mutant ratio (1:3, pH 6.0/7.4)
Please respond with just the number, no unit label.

[[record]]
molecule = "LC-P095C (antibody, V domains shown) VH: EVQLVQSGAEVKKPGATVKISCKVSGYSFTGHTMNWIRQPPGKGLEWIGLIKPSNGGTSYNQKFKGRVTISADKSISTAYLQWSSLKASDTAMYYCAHGHYESYFAMDYWGQGTLVTVSS VL: DIQMTQSPSSLSASVGDRVTITCKASQDVSSAVAWYQQKPGQAPRLLIYWASTRHTGVPSRFSGSGSGTEFTLTISSLQPDDFATYYCQEHFSTCLTFGQGTKVEIK"
measured_number = 2.350


Suppose we examine the molecule LC-A051N (antibody, V domains shown) VH: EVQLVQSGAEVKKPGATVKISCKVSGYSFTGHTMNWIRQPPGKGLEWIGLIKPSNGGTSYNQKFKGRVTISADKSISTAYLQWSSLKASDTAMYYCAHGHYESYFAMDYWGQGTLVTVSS VL: DIQMTQSPSSLSASVGDRVTITCKASQDVSSAVAWYQQKPGQAPRLLIYWNSTRHTGVPSRFSGSGSGTEFTLTISSLQPDDFATYYCQEHFSTPLTFGQGTKVEIK ; what Affinity ELISA CPE mutant ratio (1:3, pH 6.0/7.4) value has been reported?
1.412
